Numbers sourced from patent US20050239656A1.

Test system: prickly sida
Experimental Protocol: Test Example 1: foliage treatment, upland pot test
Format: in vivo, Sida spinosa L.
Applied Conditions: active ingredient 500 g/ha, observed 18th to 23rd day, 0 = non-treated, 100 = complete kill
Endpoint Label: Growth controlling degree (%) Prickly sida
The answer is to be given in %; state only the numeric part.

Below are worked cases with known answers.
>  <Molecule>
CC(C)CC(=O)N(C)C(c1cnccc1C(F)(F)F)C(C)C (centres unmarked) [I-193]

>  <Value Measured>
90

$$$$
>  <Molecule>
CC(C)C(c1cnccc1C(F)(F)F)N(C)C(=O)Cc1c(F)cccc1Cl (centres unmarked) [I-33]

>  <Value Measured>
70

$$$$
>  <Molecule>
CC(C)C(c1cnccc1C(F)(F)F)N(C)C(=O)CC1CCCC1 (centres unmarked) [I-165]

>  <Value Measured>
80

$$$$
>  <Molecule>
CC(C)C(c1cnccc1C(F)(F)F)N(C)C(=O)COc1ccc(F)cc1 (centres unmarked) [I-241]

>  <Value Measured>
80

$$$$
>  <Molecule>
CC(C)C(c1cnccc1C(F)(F)F)N(C)C(=O)CC1Cc2ccccc2C1 (centres unmarked) [I-191]

>  <Value Measured>
80

$$$$

Sample CC(C)C(c1cnccc1Cl)N(C)C(=O)Cc1cccc(F)c1F (centres unmarked) [I-72] — what was its Growth controlling degree (%) Prickly sida? 60

Sample CCC(CC)C(c1cnccc1C(F)(F)F)N(C)C(=O)Cc1ccccc1 (centres unmarked) [I-262] — what was its Growth controlling degree (%) Prickly sida? 95

* * *

Test system: japanese bulrush
Experimental Protocol: Test Example 3: paddy pot test, application under submerged conditions
Format: in vivo, Scirpus juncoides
Applied Conditions: active ingredient 250 g/ha; submerged application at 0.5 leaf stage; visually observed 14 days after application; 0 = non-treated, 100 = complete kill
Endpoint Label: Growth controlling degree (%) Japanese bulrush
The answer is to be given in %; state only the numeric part.

>  <Molecule>
CC(C)C(c1cnccc1C(F)(F)F)N(C)C(=O)COc1ccc([N+](=O)[O-])cc1 (stereo not shown)

>  <Measured On>
japanese bulrush

>  <Value Measured>
95

$$$$
>  <Molecule>
CC(C)C(c1cnccc1C(F)(F)F)N(C)C(=O)COc1ccc(F)cc1 (stereo not shown)

>  <Measured On>
japanese bulrush

>  <Value Measured>
95

$$$$
>  <Molecule>
CCC(Br)C(=O)N(C)C(c1cnccc1C(F)(F)F)C(C)C (stereo not shown)

>  <Measured On>
japanese bulrush

>  <Value Measured>
98

$$$$
>  <Molecule>
CCN(C(=O)Cc1c(F)cccc1F)C(c1cnccc1C(F)(F)F)C(C)C (stereo not shown)

>  <Measured On>
japanese bulrush

>  <Value Measured>
90

$$$$

Sample CC(C)C(c1cnccc1C(F)(F)F)N(C)C(=O)COc1cccc(C(F)(F)F)c1 (stereo not shown) — what was its Growth controlling degree (%) Japanese bulrush? 98

Sample CCN(C(=O)COc1ccccc1)C(c1cnccc1C(F)(F)F)C(C)C (stereo not shown) — what was its Growth controlling degree (%) Japanese bulrush? 70

Sample COc1ccc(S(=O)(=O)N(C)C(c2cnccc2C(F)(F)F)C(C)C)cc1 (stereo not shown) — what was its Growth controlling degree (%) Japanese bulrush? 98

Sample CC(C)C(c1cnccc1C(F)(F)F)N(C)C(=O)Cc1ccc(C(F)(F)F)cc1F (stereo not shown) — what was its Growth controlling degree (%) Japanese bulrush? 80
